- Tested on: MCF7
- Run Description: Cytotoxicity against human MCF7 cells after 48 hrs by SRB assay
- Type: functional
- Settings: MCF7, 48 h, pooled result: one value given for 6 cell lines, strains, targets or settings
Recorded LC50 (concentration killing 50% of cells) values for a group of molecules are listed next.
Report as a plain number; the unit µM is understood.

Some entries whose results are on file:
| Compound String | Target Of Assay | Quantity Unit | Endpoint Result |
| --- | --- | --- | --- |
| Cc1nc2ccc(Nc3nc(Cl)nc(Nc4ccc(F)cc4)n3)cc2n1Cc1ccccc1 | MCF7 | µM | 75.8 |
| Cc1nc2cc(Nc3nc(Nc4ccc(F)cc4)nc(N4CCN(C)CC4)n3)ccc2n1Cc1ccccc1 | MCF7 | µM | 7.54 |
| Cc1nc2ccc(Nc3nc(NCCN4CCOCC4)nc(Nc4ccc(F)cc4)n3)cc2n1Cc1ccccc1 | MCF7 | µM | 20.6 |
| Cc1nc2cc(Nc3nc(Nc4ccc(F)cc4)nc(-c4cccs4)n3)ccc2n1Cc1ccccc1 | MCF7 | µM | 79.2 |

LC50 (concentration killing 50% of cells) for `Cc1nc2cc(Nc3nc(Nc4ccc(F)cc4)nc(N4CCCC4)n3)ccc2n1Cc1ccccc1` ? 6.69

###

- Tested on: NCI-H322M
- Run Description: Cytotoxicity against human NCI-H322M cells at 10 uM after 48 hrs by SRB assay
- Assay type: functional
- Settings: read-out: GI
Recorded inhibition of growth at 10 µM values for a group of compounds are listed next.
Report as a plain number; the unit % is understood.

Some entries whose results are on file:
| Compound String | inhibition of growth at 10 µM [%] |
| --- | --- |
| COc1ccc(-c2nc(Nc3ccc(F)cc3)nc(Nc3ccc4c(c3)nc(C)n4Cc3ccccc3)n2)cc1 | 17.6 |
| Cc1nc2cc(Nc3nc(NCCN)nc(Nc4ccc(F)cc4)n3)ccc2n1Cc1ccccc1 | 0.32 |
| Cc1nc2cc(Nc3nc(NCCO)nc(Nc4ccc(F)cc4)n3)ccc2n1Cc1ccccc1 | 1.09 |
| Cc1nc2ccc(Nc3nc(NCCN)nc(Nc4ccc(F)cc4)n3)cc2n1Cc1ccccc1 | 7.76 |
| Cc1nc2ccc(Nc3nc(NCCN4CCOCC4)nc(Nc4ccc(F)cc4)n3)cc2n1Cc1ccccc1 | 35.9 |
| Cc1nc2cc(Nc3nc(Nc4ccc(F)cc4)nc(-c4ccc(Cl)cc4)n3)ccc2n1Cc1ccccc1 | 5.98 |

inhibition of growth at 10 µM for `Cc1nc2cc(Nc3nc(Nc4ccc(F)cc4)nc(Nc4ncccn4)n3)ccc2n1Cc1ccccc1` ? 5.47

inhibition of growth at 10 µM for `Cc1nc2ccc(Nc3nc(Cl)nc(Nc4ccc(F)cc4)n3)cc2n1Cc1ccccc1` ? 11.9

inhibition of growth at 10 µM for `Cc1nc2cc(Nc3nc(Nc4ccc(F)cc4)nc(N4CCCC4)n3)ccc2n1Cc1ccccc1` ? 78.6

###

- System: MDA-MB-468
- Run Description: Cytotoxicity against human MDA-MB-468 cells at 10 uM after 48 hrs by SRB assay
- Type: functional
- Settings: MDA-MB-468, 48 h, read-out: GI
Recorded inhibition of growth at 10 µM values for a group of compounds are listed next.

Please state recorded inhibition of growth at 10 µM (tested on MDA-MB-468) of `Cc1nc2cc(Nc3nc(Nc4ccc(F)cc4)nc(-c4cccs4)n3)ccc2n1Cc1ccccc1` 66.8%

Please state recorded inhibition of growth at 10 µM (tested on MDA-MB-468) of `Cc1nc2ccc(Nc3nc(Cl)nc(Nc4ccc(F)cc4)n3)cc2n1Cc1ccccc1` 30.3%

Please state recorded inhibition of growth at 10 µM (tested on MDA-MB-468) of `Cc1nc2ccc(Nc3nc(NCCO)nc(Nc4ccc(F)cc4)n3)cc2n1Cc1ccccc1` 23%

Please state recorded inhibition of growth at 10 µM (tested on MDA-MB-468) of `Cc1nc2cc(Nc3nc(Nc4ccc(O)cc4)nc(Nc4ccc(F)cc4)n3)ccc2n1Cc1ccccc1` 13.4%

Please state recorded inhibition of growth at 10 µM (tested on MDA-MB-468) of `Cc1nc2cc(Nc3nc(Cl)nc(Nc4ccc(F)cc4)n3)ccc2n1Cc1ccccc1` 23.8%

Please state recorded inhibition of growth at 10 µM (tested on MDA-MB-468) of `Cc1nc2cc(Nc3nc(NCCN)nc(Nc4ccc(F)cc4)n3)ccc2n1Cc1ccccc1` 26.8%

###

- System: SK-MEL-28
- Run Description: Cytotoxicity against human SK-MEL-28 cells at 10 uM after 48 hrs by SRB assay
- Assay type: functional
The source made the active and inactive calls. No cut-off for these calls is given here.
Outcome (select one): true (1) = active, false (0) = inactive

GET /call?item= `Cc1nc2cc(Nc3nc(Nc4ccc(F)cc4)nc(Nc4ccc(F)cc4)n3)ccc2n1Cc1ccccc1` returns the recorded outcome of this test. false (0)

GET /call?item= `Cc1nc2cc(Nc3nc(Nc4ccc(F)cc4)nc(N4CCN(C)CC4)n3)ccc2n1Cc1ccccc1` returns the recorded outcome of this test. true (1)

GET /call?item= `Cc1nc2cc(Nc3nc(NCCO)nc(Nc4ccc(F)cc4)n3)ccc2n1Cc1ccccc1` returns the recorded outcome of this test. false (0)

GET /call?item= `Cc1nc2ccc(Nc3nc(NCCO)nc(Nc4ccc(F)cc4)n3)cc2n1Cc1ccccc1` returns the recorded outcome of this test. false (0)

GET /call?item= `Cc1nc2cc(Nc3nc(Nc4ccc(O)cc4)nc(Nc4ccc(F)cc4)n3)ccc2n1Cc1ccccc1` returns the recorded outcome of this test. false (0)

###

- System: CCRF-CEM
- Run Description: Cytotoxicity against human CCRF-CEM cells at 10 uM after 48 hrs by SRB assay
- Format: functional
- Settings: read-out: GI
Binary classification by inhibition of growth at 10 µM, with 30% as an inclusive lower bound for Y; all other cases are N.

| Compound String | Target Of Assay | Classification |
| --- | --- | --- |
| Cc1nc2cc(Nc3nc(Nc4ccc(O)cc4)nc(Nc4ccc(F)cc4)n3)ccc2n1Cc1ccccc1 | CCRF-CEM | N |
| Cc1nc2cc(Nc3nc(Nc4ccc(F)cc4)nc(-c4ccc(Cl)cc4)n3)ccc2n1Cc1ccccc1 | CCRF-CEM | Y |
| Cc1nc2ccc(Nc3nc(Nc4ccc(F)cc4)nc(N4CCCCC4)n3)cc2n1Cc1ccccc1 | CCRF-CEM | N |
| Cc1nc2ccc(Nc3nc(NCCO)nc(Nc4ccc(F)cc4)n3)cc2n1Cc1ccccc1 | CCRF-CEM | N |
| Cc1nc2cc(Nc3nc(Nc4ccc(F)cc4)nc(Nc4ncccn4)n3)ccc2n1Cc1ccccc1 | CCRF-CEM | Y |
| Cc1nc2cc(Nc3nc(Nc4ccc(F)cc4)nc(Nc4ccc(F)cc4)n3)ccc2n1Cc1ccccc1 | CCRF-CEM | N |
| Cc1nc2cc(Nc3nc(NCCO)nc(Nc4ccc(F)cc4)n3)ccc2n1Cc1ccccc1 | CCRF-CEM | Y |
| Cc1nc2ccc(Nc3nc(Cl)nc(Nc4ccc(F)cc4)n3)cc2n1Cc1ccccc1 | CCRF-CEM | Y |

Record `Cc1nc2cc(Nc3nc(Nc4ccc(F)cc4)nc(-c4cccs4)n3)ccc2n1Cc1ccccc1` ; criterion: inhibition of growth at 10 µM no lower than 30%. Met? Y

Record `Cc1nc2cc(Nc3nc(Cl)nc(Nc4ccc(F)cc4)n3)ccc2n1Cc1ccccc1` ; criterion: inhibition of growth at 10 µM no lower than 30%. Met? N

Record `Cc1nc2ccc(Nc3nc(NCCN)nc(Nc4ccc(F)cc4)n3)cc2n1Cc1ccccc1` ; criterion: inhibition of growth at 10 µM no lower than 30%. Met? Y

Record `Cc1nc2ccc(Nc3nc(NCCN4CCOCC4)nc(Nc4ccc(F)cc4)n3)cc2n1Cc1ccccc1` ; criterion: inhibition of growth at 10 µM no lower than 30%. Met? Y

###

- Tested on: A549
- Run Description: Cytotoxicity against human A549 cells after 48 hrs by SRB assay
- Type: functional
- Settings: A549, 48 h, pooled result: one value given for 8 cell lines, strains, targets or settings
Mark MET only for GI50 values smaller than 3 µM; exact matches and larger values are NOT MET.

| Compound String | Target Of Assay | Classification |
| --- | --- | --- |
| COc1ccc(-c2nc(Nc3ccc(F)cc3)nc(Nc3ccc4c(c3)nc(C)n4Cc3ccccc3)n2)cc1 | A549 | NOT MET |

GI50 strictly < 3 µM for this compound? `Cc1nc2cc(Nc3nc(Nc4ccc(F)cc4)nc(N4CCCC4)n3)ccc2n1Cc1ccccc1` MET

GI50 strictly < 3 µM for this compound? `Cc1nc2ccc(Nc3nc(NCCN4CCOCC4)nc(Nc4ccc(F)cc4)n3)cc2n1Cc1ccccc1` NOT MET

GI50 strictly < 3 µM for this compound? `Cc1nc2cc(Nc3nc(Nc4ccc(F)cc4)nc(-c4cccs4)n3)ccc2n1Cc1ccccc1` NOT MET

GI50 strictly < 3 µM for this compound? `Cc1nc2cc(Nc3nc(Nc4ccc(F)cc4)nc(-c4ccc(Cl)cc4)n3)ccc2n1Cc1ccccc1` NOT MET

GI50 strictly < 3 µM for this compound? `Cc1nc2ccc(Nc3nc(Cl)nc(Nc4ccc(F)cc4)n3)cc2n1Cc1ccccc1` NOT MET

GI50 strictly < 3 µM for this compound? `Cc1nc2cc(Nc3nc(Nc4ccc(F)cc4)nc(N4CCN(C)CC4)n3)ccc2n1Cc1ccccc1` MET
